Values from patent US11382328B2

Test system: E. coli strain W3110
ASSAY_COMMENT: Synergy assays: Biolog chemical sensitivity panels with Group IB metal, coefficient of drug interaction (CDI) from relative growth
Type: cell-based
MEASUREMENT_CONTEXT: Gold section of Table 5; third of three gold concentrations (μM, value not given); biocide concentration 2 of 4
MEASUREMENT_LABEL: CDI (coefficient of drug interaction)
One number for each entry.

[
  {
    "MOLECULE": "O=S(=O)(F)Cc1ccccc1 [PMSF]",
    "NUMBER": 1.16
  },
  {
    "MOLECULE": "CCCCCCCC[N+](C)(CCCCCCCC)CCCCCCCC.[Br-] [Methyltrioctyl NH4+ Br−]",
    "NUMBER": 1.01
  },
  {
    "MOLECULE": "CCCCCCCCCCCC[N+](C)(C)C.[Br-] [Dodecyltrimethyl NH4^+ Br^−]",
    "NUMBER": 1.14
  }
]

Give CDI (coefficient of drug interaction) for each of the items listed below.
1. CN(C)C(=O)/N=N/C(=O)N(C)C [diamide]
2. CN[C@H]1C[C@@H](N)[C@H](O)[C@@H](O[C@@H]2O[C@H](CO)[C@H](O)[C@@H]3OC4(O[C@H]23)O[C@H]([C@@H](N)CO)[C@H](O)[C@H](O)[C@H]4O)[C@@H]1O (stereo partly drawn) [hygromycin B]
3. CN(CC[C@H](N)CC(=O)N[C@H]1C=C[C@H](n2ccc(N)nc2=O)O[C@@H]1C(=O)O)C(=N)N [blasticidin S]

Result ::
0.93
1.27
1.06

###

Test system: E. coli strain W3110
ASSAY_COMMENT: Synergy assays: Biolog chemical sensitivity panels with Group IB metal, coefficient of drug interaction (CDI) from relative growth
Assay type: cell-based
MEASUREMENT_CONTEXT: Gold (μM), second of 3 gold concentrations; biocide concentration 3 of 4
MEASUREMENT_LABEL: CDI (coefficient of drug interaction), gold + biocide
Give bare numbers.

The following compounds have reported results that may help.
[
  {
    "COMPOUND": "O=C(O)/C=C/c1ccccc1",
    "NUMBER": 0.95
  },
  {
    "COMPOUND": "CC1(C)S[C@@H]2[C@H](NC(=O)[C@H](NC(=O)N3CCNC3=O)c3ccccc3)C(=O)N2[C@H]1C(=O)O",
    "NUMBER": 0.89
  },
  {
    "COMPOUND": "NC(CO)C(=O)NO (racemic) [D,L-serine hydroxamate]",
    "NUMBER": 1.22
  }
]

Please find the next compound below.
Lab note: NCC(=O)NO [glycine hydroxamate] gave CDI (coefficient of drug interaction), gold + biocide of 1.19

###

Test system: E. coli strain W3110
ASSAY_COMMENT: Synergy assays: Biolog chemical sensitivity panels with Group IB metal, coefficient of drug interaction (CDI) from relative growth
Assay type: cell-based
MEASUREMENT_CONTEXT: Copper 1.0 mM; biocide concentration 4 of 4

[
  {
    "SMILES_NOTATION": "c1cnc2c(c1)ccc1cccnc12",
    "CDI": "Tox"
  },
  {
    "SMILES_NOTATION": "O=C(O)CN(CCOCCOCCN(CC(=O)O)CC(=O)O)CC(=O)O",
    "CDI": 1.44
  },
  {
    "SMILES_NOTATION": "c1ccc(-c2ccccn2)nc1",
    "CDI": "Tox"
  },
  {
    "SMILES_NOTATION": "CCCCc1ccc(C(=O)O)nc1",
    "CDI": "Tox"
  }
]
